pEC50 values, listed per item
Target: T1, tetanus toxoid (UniProt P04958 1-1315)
T1 chain: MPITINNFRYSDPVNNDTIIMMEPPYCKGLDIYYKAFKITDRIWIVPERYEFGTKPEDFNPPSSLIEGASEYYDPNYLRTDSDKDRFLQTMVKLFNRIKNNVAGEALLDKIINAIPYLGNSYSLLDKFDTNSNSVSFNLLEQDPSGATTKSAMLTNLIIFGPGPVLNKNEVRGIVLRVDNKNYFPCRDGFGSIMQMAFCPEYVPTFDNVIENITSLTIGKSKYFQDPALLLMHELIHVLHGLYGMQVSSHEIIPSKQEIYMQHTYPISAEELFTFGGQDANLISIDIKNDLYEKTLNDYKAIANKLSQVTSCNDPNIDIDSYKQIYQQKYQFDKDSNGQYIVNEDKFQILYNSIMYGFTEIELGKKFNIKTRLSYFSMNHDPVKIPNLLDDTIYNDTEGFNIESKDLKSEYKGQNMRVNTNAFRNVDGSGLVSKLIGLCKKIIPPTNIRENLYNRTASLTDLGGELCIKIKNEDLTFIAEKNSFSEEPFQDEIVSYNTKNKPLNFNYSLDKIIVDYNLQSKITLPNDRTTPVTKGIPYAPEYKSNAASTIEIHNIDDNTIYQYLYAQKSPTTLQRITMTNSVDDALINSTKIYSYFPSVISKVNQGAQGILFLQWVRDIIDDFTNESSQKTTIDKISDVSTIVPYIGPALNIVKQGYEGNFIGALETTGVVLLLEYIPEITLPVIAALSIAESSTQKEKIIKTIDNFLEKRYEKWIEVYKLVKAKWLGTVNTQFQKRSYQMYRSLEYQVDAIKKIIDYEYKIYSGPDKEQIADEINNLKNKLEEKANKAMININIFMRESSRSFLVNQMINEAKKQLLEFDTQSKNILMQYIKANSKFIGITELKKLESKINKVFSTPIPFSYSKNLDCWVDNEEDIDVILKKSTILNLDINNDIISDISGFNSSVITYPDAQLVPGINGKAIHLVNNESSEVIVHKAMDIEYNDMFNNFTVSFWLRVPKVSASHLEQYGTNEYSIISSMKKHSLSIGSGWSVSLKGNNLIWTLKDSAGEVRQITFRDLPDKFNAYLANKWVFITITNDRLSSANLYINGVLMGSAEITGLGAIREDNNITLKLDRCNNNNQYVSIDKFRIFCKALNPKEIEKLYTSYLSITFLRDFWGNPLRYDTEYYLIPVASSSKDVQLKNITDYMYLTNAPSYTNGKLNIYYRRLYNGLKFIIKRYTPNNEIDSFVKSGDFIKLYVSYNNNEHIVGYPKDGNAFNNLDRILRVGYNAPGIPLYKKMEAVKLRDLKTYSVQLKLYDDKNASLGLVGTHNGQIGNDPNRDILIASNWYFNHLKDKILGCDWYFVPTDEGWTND
Assay: ELISA
pEC50: −log10 of the molar value.

- binder: "TT-Ab9 (antibody, V domains shown) VH: EVQLVESGGSLVQPGGSLRLSCVGTGFTFNTYWMSWVRQAPGKGLEWVANIKQDGREKHYVDSVMGRFTVSRDNAMNALYLQVNSLRVEDTAVYYCARGMTAWSLGGYQYDYWGQGTQVTVSS VL: DIQMTQSPSSLSASVGDTVTITCRASQGIRSDLGWYQQRPGKAPKLLVYTASTLQTGVPSRFSGSGFGTDFTLTISSLQPEDFATYYCLQNYNYPRTFGQGTKVEIK"
  pEC50: 5.98
- binder: "TT-Ab10 (antibody, V domains shown) VH: EVQLVESGGGLVQPGGSLRVSCGASGFTFANFWMSWVRQAPGKGLEWVANINQDGNERKYVDSVKGRFTISRDNDKNSLYLQMNSLRAEDTAVYFCAREYGSYWRTYYFDDWGQGTLVTVSS VL: DIVMTQSPATLSLSPGERATLSCRASQSVSNYLAWYQQKPGQAPRLLIYDASNRASGTPARFSGSGFGTDFTLTISSLDPEDFAVYYCQQGSNWLTFGGGTKVEIK"
  pEC50: 6.06
- binder: "TT-Ab12 (antibody, V domains shown) VH: QVQLQESGPGLVKPSETLSLTCNVSGASISRYYWAWIRQPPGKGLEWIGYIYDSGTTTYNTSLKSRVTISRDTSKNQFSLNMMSVTAADTAVYYCARARYYYDSTGYFYGWLDPWGQGRLVTVSF VL: DIQMTQSPSTLSASVGDRVTITCRASQSINIWLAWYQQRPGKAPDLLIYKASTLQSGVPSRFSGSGSGTEFTLTISSVQPDDFATYYCQQYKSYSCSFGQGTKVEIN"
  pEC50: 6.64
- binder: "TT-Ab7 (antibody, V domains shown) VH: EVQLVESGGGWVQPGGSLRLSCAASGFTFNSFGSYGMSWVRQAPGKGLEWVSHISASGAATYYADSVKGRFTISRDNSKNTLLLQMNDLRGEDTATYYCARSVQQYLGLLGYWGQGTLVTVSS VL: QSVLTQSPSASASLGATVKLTCTLSSGHTNYAIAWHQLQPQKAPRYLLKISNDGSHKRGDGIPDRFSGSSSGAERYLTISSLQSEDEAEYYCQTWGAGMGMFGGGTKLTVL"
  pEC50: 6.18
- binder: "TT-Ab4 (antibody, V domains shown) VH: EVQLVQSGAEMKKPGSSVKVSCRMSGGKFNNYAMSWVRQAPGQGLEWVGGIIPVLGTANYAQKFQDRVAITADKSTNTAYMELSSLRSDDTAVYYCARVWGTVVTQGPSQVQYNHYGMDVWGQGTTVTVSS VL: DIQLTQSPSSLSASVGDRVTITCRATQSISSSLNWYQHKPGKAPNLLISAASNLQSGVPSRFSGSGSRTDFTLTITNLQPEDFATYYCQQSYTTPLTFGGGTKVEIK"
  pEC50: 5.97
